Recorded values, source patent US9023882B2.

- test_system: Xanthine oxidase (from bovine milk, Sigma) (Bos taurus (Bovine))
- assay_text: Xanthine oxidase inhibitory activity
- Type: biochemical
- setup_conditions: 0.02 units/mL, xanthine 200 μM, 10 minutes at room temperature, absorbance at 290 nm
Reported IC50 is given for each of the following compounds.
Record the value in µM, omitting the unit from your answer.

structure_smiles	measurement_unit	assay_value
N#Cc1cn(-c2ccc(C(=O)O)cc2)cc1-c1cccc(OCc2ccc(F)cc2)c1	µM	0.0903
COCCOc1cn(-c2ccc(C(=O)O)cc2)cc1C#N	µM	0.004

Here is another compound to look at.
I am curious: what IC50 value has been reported for COCCOc1ccccc1-c1cn(-c2ccc(C(=O)O)cc2)cc1C#N ?
0.0111

====

- test_system: Xanthine oxidase (from bovine milk, Sigma) (Bos taurus (Bovine), UniProt P80457)
- Sequence (P80457 whole entry): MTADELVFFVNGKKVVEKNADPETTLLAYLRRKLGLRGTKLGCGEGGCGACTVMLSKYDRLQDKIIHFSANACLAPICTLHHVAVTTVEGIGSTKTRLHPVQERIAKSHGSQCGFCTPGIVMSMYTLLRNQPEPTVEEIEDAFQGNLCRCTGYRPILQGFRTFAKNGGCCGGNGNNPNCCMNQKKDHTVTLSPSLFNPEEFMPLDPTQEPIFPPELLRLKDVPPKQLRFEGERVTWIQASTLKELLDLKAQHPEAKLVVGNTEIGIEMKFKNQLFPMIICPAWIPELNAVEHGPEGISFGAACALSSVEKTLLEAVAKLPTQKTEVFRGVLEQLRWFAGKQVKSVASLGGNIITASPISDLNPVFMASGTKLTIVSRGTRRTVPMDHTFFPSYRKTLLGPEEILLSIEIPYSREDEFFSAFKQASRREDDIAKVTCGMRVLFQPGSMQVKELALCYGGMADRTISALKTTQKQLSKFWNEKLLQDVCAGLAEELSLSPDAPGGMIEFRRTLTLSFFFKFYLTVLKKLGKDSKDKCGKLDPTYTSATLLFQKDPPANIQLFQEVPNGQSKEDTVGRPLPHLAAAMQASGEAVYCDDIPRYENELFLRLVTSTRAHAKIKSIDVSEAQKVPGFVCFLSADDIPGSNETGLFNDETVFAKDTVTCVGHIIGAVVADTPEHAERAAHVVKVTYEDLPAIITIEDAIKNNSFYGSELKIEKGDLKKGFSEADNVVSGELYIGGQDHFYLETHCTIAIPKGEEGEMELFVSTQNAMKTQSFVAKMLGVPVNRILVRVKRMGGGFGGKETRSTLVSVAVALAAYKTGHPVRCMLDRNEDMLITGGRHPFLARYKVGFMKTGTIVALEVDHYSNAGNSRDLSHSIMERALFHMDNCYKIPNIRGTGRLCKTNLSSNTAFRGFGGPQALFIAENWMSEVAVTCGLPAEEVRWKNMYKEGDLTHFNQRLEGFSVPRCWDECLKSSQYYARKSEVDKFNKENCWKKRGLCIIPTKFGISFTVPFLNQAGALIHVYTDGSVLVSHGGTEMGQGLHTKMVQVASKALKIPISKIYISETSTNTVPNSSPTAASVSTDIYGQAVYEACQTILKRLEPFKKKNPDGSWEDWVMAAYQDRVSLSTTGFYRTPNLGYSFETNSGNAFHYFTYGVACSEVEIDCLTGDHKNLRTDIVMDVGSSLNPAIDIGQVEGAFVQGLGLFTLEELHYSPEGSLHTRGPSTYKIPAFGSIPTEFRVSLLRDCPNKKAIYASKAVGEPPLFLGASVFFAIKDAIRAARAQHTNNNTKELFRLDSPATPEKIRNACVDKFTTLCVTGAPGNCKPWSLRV
- assay_text: Xanthine oxidase inhibitory activity
- Type: biochemical
- setup_conditions: 100 μM xanthine final, absorbance at 290 nm
- Procedure: (1) Preparation of Test Compounds Test compounds were dissolved in DMSO (Wako) at 40 mM concentration and then diluted to intended concentrations with phosphate-buffered saline (PBS). (2) Method for Measurement Xanthine oxidase (from bovine milk, Sigma) was prepared with phosphate-buffered saline (PBS) at 0.02 units/mL, and then the solution was added to 96 well plates at 50 μL/well. […] Absorbance at 290 nm was measured using a microplate reader SpectraMax Plus 384 (Molecular device). […]
measured_parameter: pIC50
// scale note: pIC50 = -log10(conc_M); give the bare number

Below, 3 molecules whose answers are already recorded.
structure_smiles	pIC50
COc1ccc(-c2cn(-c3cc(C(=O)O)ccn3)cc2C#N)cc1	7.88
CCCCc1cn(-c2ccc(C(=O)O)c(O)c2)cc1C#N	8.48
Cn1cc(-c2cn(-c3ccc(C(=O)O)c(O)c3)cc2C#N)c2ccccc21	8.28

Here is another molecule to look at.
I am curious: what pIC50 value has been reported for N#Cc1cn(-c2ccc(C(=O)O)c(O)c2)cc1-c1cccc(O)c1 ?
8.24
